system: VDR:RXRa (NR concentration 270 nM, RXRa partner concentration 90 nM); assay: PBM binding z-score (relative to random genomic background probes); higher = stronger binding; sequences stand for … in GC…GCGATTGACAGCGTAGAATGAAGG
Recorded PBM binding z-score split into classes lower bin (below 0.9), middle bin (0.9 to below 3), upper bin (3 or more)

Answered cases to consult:
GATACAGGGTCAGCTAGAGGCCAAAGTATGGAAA: upper bin
CCTTACGGGTCAAGGTTCTAGCACGGGTGGTACG: upper bin
ACTCGGAGGACAAAGGTCAGCGCTACGCCAGTGA: upper bin
ACTCGGAGGACAAAGGTCAGATCTACGCCAGTGA: upper bin
CAGCCTAGGTCAGGGGCAGTATAGGAGGAACGTT: lower bin

q: Band for TCATCTAGGTAAAGGTGAAAGTCGAACGATATGA ?
a: middle bin

* * *

tested on: PXR:RXRa (NR concentration 270 nM, RXRa partner concentration 90 nM); test: PBM binding z-score (relative to random genomic background probes); higher = stronger binding; sequences stand for … in GC…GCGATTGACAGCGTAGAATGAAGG
# cutoff 0.04 applies to PBM binding z-score; >= gives Satisfied, < gives Not satisfied

Answered cases to consult:
TATACAGGGTCAAAAGCCAGAGTACGAATGTCGA: Satisfied
ACTTCCGGGTCAACGAGGTTATAGCACGCGTATA: Satisfied
GCAGACAGGTGAAACCCAGGTAACTCAGGGTGGC: Not satisfied
GCTAGCAGGCCATTTGGGTCGCTCAATGACGGGC: Not satisfied
CCTCGGAGGACAGAAGGTCTGAGCTGTCCGCTTT: Not satisfied

Okay, now this sequence:
q: Decide: is the reported value of PBM binding z-score for CGTCAAAGTTCAAGGTACCGTAACAGAAAGCAGC equal to or greater than 0.04?
a: Satisfied

* * *

tested on: LXRb:RXRa (NR concentration 270 nM, RXRa partner concentration 90 nM); experiment: PBM binding z-score (relative to random genomic background probes); higher = stronger binding; sequences stand for … in GC…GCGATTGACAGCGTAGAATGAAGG
# cutoff 0.9 applies to PBM binding z-score; >= gives criterion met, < gives criterion not met

q: Decide: is the reported value of PBM binding z-score for ATATGTAGGTTATCGGGTCATGCAGTTTGCGCAT equal to or greater than 0.9?
a: criterion met

* * *

system: THRa:RXRa (NR concentration 90 nM, RXRa partner concentration 90 nM); assay: PBM binding z-score (relative to random genomic background probes); higher = stronger binding; sequences stand for … in GC…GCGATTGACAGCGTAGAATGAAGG
# cutoff 3 applies to PBM binding z-score; >= gives True, < gives False

CCTAGCAGGCCAGAGTCACTCAAGCATTTCGCTT: False
TTACCAAGGTGAGCTGAGGTCGTTAATCCAACTC: True
ACAGACAGGTGATGAAGGTGACTCAGGCTATCAT: False

q: Decide: is the reported value of PBM binding z-score for AGCTCTAGGTAAAGATAGTTCAGTGAATGCAAAT equal to or greater than 3?
a: False

q: Decide: is the reported value of PBM binding z-score for GGAAGGAGGGCATTCGAGTTGATAGCATGGCGAT equal to or greater than 3?
a: False

q: Decide: is the reported value of PBM binding z-score for AATCAAAGTTCATCTAGGTAACGTAAGATATGCT equal to or greater than 3?
a: True
